- Test system: COS
- Assay Procedure: Selectivity ratio of IC50 for human COX1 to IC50 for human COX2 expressed in african green monkey COS cells
- Type: cell-based
Activity calls are given as the source filed them. No cut-off for these calls is given here.

# Smiles Record, Ratio IC50
measured = [
    ("CC(C)CNc1nc(-c2ccc(S(C)(=O)=O)cc2)cc(C(F)(F)F)n1", "> 33100"),
    ("NS(=O)(=O)c1ccc(-c2cc(C(F)(F)F)nc(NC3CCCCC3)n2)cc1", 69.5),
    ("CS(=O)(=O)c1ccc(-c2cc(C(F)(F)F)nc(NC3CCOCC3)n2)cc1", "> 5090"),
    ("Cc1ccc(CNc2nc(-c3ccc(S(C)(=O)=O)cc3)cc(C(F)(F)F)n2)cc1", "> 10000"),
    ("CS(=O)(=O)c1ccc(-c2cc(OCC(F)(F)F)nc(NC3CCCCC3)n2)cc1", 395),
    ("CS(=O)(=O)c1ccc(-c2ccnc(NC3CCCCC3)n2)cc1", "inactive"),
    ("Cc1c(-c2ccc(S(C)(=O)=O)cc2)nc(NC2CCCCC2)nc1C(F)(F)F", "inactive"),
    ("CCCCNc1nc(-c2ccc(S(N)(=O)=O)cc2)cc(C(F)(F)F)n1", "> 500"),
    ("CS(=O)(=O)c1ccc(-c2cc(C(F)(F)F)nc(NC3CCNCC3)n2)cc1", "inactive"),
    ("CS(=O)(=O)c1ccc(-c2cc(C(F)(F)F)nc(NCc3ccccc3)n2)cc1", "> 400000"),
    ("Cc1cc(-c2ccc(S(C)(=O)=O)cc2)nc(NC2CCCCC2)n1", "> 59"),
    ("CS(=O)(=O)c1ccc(-c2cc(N)nc(NC3CCCCC3)n2)cc1", "inactive"),
    ("Cc1ccc(Nc2nc(-c3ccc(S(C)(=O)=O)cc3)cc(C(F)(F)F)n2)cc1", "> 9090"),
    ("CS(=O)(=O)c1ccc(-c2cc(C(F)(F)F)nc(NCC3CCOCC3)n2)cc1", 20000),
    ("CS(=O)(=O)c1ccc(-c2cc(C(F)(F)F)nc(Nc3ccccc3)n2)cc1", "> 17900"),
]

----------
Here, each record is paired with measured pIC50 data.
- Subject Of Test: Prostaglandin G/H synthase 1 (Homo sapiens)
- Sequence (P23219 whole entry): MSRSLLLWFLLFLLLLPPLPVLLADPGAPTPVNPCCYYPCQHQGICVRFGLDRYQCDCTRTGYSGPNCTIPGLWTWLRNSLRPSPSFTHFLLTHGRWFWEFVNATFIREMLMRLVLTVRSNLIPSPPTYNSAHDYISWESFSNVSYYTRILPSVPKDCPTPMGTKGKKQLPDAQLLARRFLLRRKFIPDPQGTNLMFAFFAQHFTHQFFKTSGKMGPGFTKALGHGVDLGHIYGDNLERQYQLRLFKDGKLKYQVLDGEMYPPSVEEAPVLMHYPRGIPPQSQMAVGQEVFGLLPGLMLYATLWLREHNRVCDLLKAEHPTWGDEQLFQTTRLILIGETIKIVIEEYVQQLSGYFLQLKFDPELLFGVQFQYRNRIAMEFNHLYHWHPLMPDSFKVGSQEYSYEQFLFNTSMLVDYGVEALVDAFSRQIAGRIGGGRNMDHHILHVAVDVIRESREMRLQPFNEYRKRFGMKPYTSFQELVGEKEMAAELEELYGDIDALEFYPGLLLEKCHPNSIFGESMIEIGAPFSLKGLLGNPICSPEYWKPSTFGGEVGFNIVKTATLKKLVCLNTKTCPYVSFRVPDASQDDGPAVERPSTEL
- Assay Procedure: biochemical
- Format: cell-based, Sf9
pIC50: −log10 of the molar value.

# Smiles Record, Subject Of Test, Qualifying Sign, pIC50
rows = [
    ("Cc1cccc(Oc2nc(-c3ccc(S(C)(=O)=O)cc3)cc(C(F)(F)F)n2)c1", "Prostaglandin G/H synthase 1 (Homo sapiens)", "=", 5.36),
    ("CS(=O)(=O)c1ccc(-c2cc(C(F)(F)F)nc(OC3CCCCCCC3)n2)cc1", "Prostaglandin G/H synthase 1 (Homo sapiens)", "=", 5.52),
    ("CC(C)Oc1nc(-c2ccc(S(C)(=O)=O)cc2)cc(C(F)(F)F)n1", "Prostaglandin G/H synthase 1 (Homo sapiens)", "=", 4.28),
    ("CS(=O)(=O)c1ccc(-c2cc(C(F)(F)F)nc(OC3CCCCCC3)n2)cc1", "Prostaglandin G/H synthase 1 (Homo sapiens)", "=", 5.72),
    ("CS(=O)(=O)c1ccc(-c2cc(C(F)(F)F)nc(OC3CCCC3)n2)cc1", "Prostaglandin G/H synthase 1 (Homo sapiens)", "=", 5.39),
    ("CC(C)CNc1nc(-c2ccc(S(C)(=O)=O)cc2)cc(C(F)(F)F)n1", "Prostaglandin G/H synthase 1 (Homo sapiens)", "<", 4.00),
    ("CS(=O)(=O)c1ccc(-c2cc(C(F)(F)F)nc(OCC3CCCCC3)n2)cc1", "Prostaglandin G/H synthase 1 (Homo sapiens)", "<", 4.00),
    ("CS(=O)(=O)c1ccc(-c2cc(C(F)(F)F)nc(OC3CCC3)n2)cc1", "Prostaglandin G/H synthase 1 (Homo sapiens)", "=", 4.72),
    ("CC(C)(C)Oc1nc(-c2ccc(S(C)(=O)=O)cc2)cc(C(F)(F)F)n1", "Prostaglandin G/H synthase 1 (Homo sapiens)", "=", 4.28),
]
